test system: PPARg:RXRa 270nM:90nM, anti-RXR (NR concentration 270 nM, RXRa partner concentration 90 nM); assay: PBM binding z-score (relative to random genomic background probes); higher = stronger binding; sequences stand for … in GC…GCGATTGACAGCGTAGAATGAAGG
// label = class 1 if PBM binding z-score is not less than 1, otherwise class 0

item_sequence | category
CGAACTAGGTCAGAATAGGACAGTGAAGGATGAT | class 1
CGAACTAGGTCAGAACAGGACAGTGCAGGATGAT | class 1
ACGAGCAGGCCAAGTTTGGGTCACTCAAACAAAG | class 0
TGTGCTAGGTCAGTTGGTCAGCTAACGAGCTGCC | class 1
AGAACGAGGGCACGCTGAGTAGATAGCAGAGTAG | class 1
GCTTACGGGTCAAAGGATATAGCATGAATAGAAT | class 1
CGTCCAAGGTCAGCAGGTTAGTGAAAGCGACGTG | class 1
TATGCTAGGTCAGTTGGTCAGCTAACGAGCTGCC | class 1
CGTCCAAGGTCAATGCTAGGTCAGTTAAAGCATT | class 1
GCTGCTAGGTCAGGTTGGTCAGCCAACGGGTACG | class 1
ATCTCTAGGTAACCAGTTCAGTGAAAGAGAGGAC | class 1
TCTGCTAGGGCAGTTGGTCAGCTAACGAGCTGCC | class 0
TTTTGTAGATCAGCAGGTTAAGAAAGCTGGCCAA | class 0
GGAACGAGGGCAACTTGATAGCAGAGTTTGATGG | class 1
AGTCAAAGTTCTCTAGGTAACGTAAGATTCAGCT | class 1
TCATATAGGTAAAAGTGAAAGTCGAACGATATGA | class 1
